The origin of these recorded values is patent EP4725941A1.

# PROTOCOL TEXT: Human liver microsome stability
# Format: in vitro ADME
# CONDITIONS USED: human liver microsomes, pH 7.4
PROPERTY LABEL: log10 of microsomal CLint at 0.99 µM (log10 of the value in µL/min/mg)
// units: µL/min/mg (pre-log); metric: microsomal CLint at 0.99 µM; scale: log10

Would you please look over these solved cases?
[
  {
    "MOLECULE": "CC(C)(C)NS(=O)(=O)Nc1nccc(Cc2cc(C(N)=O)c(Nc3ccc(I)cc3F)c(F)c2F)c1F",
    "log10 of microsomal CLint at 0.99 µM": 1.00
  },
  {
    "MOLECULE": "NC(=O)c1cc(Cc2ccnc(NS(N)(=O)=O)c2F)c(F)c(F)c1Nc1ccc(I)cc1F",
    "log10 of microsomal CLint at 0.99 µM": 0.48
  }
]

Now examine the next entry.
Entry `O=C(NC1CC1)c1cc(Cc2ccnc(NS(=O)(=O)NC3CC3)c2F)c(F)c(F)c1Nc1ccc(I)cc1F` , log10 of microsomal CLint at 0.99 µM reported as 1.56
